target: GDP-bound KRAS wild-type protein (Homo sapiens, UniProt P01116); assay: Binding to KRAS by surface plasmon resonance (SPR), Single Cycle Kinetics; settings: SPR, Single Cycle Kinetics, 1:1 binding model; GDP-bound KRAS wild-type protein; read-out: KRAS KD
Sequence (P01116 whole entry): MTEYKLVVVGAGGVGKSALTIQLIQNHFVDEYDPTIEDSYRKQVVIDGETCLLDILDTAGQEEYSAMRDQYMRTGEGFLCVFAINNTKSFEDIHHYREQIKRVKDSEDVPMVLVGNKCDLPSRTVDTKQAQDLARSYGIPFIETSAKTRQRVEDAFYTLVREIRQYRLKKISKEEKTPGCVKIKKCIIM
pKd: −log10 of the molar value.
measured_metric: pKd

compound_string	assay_value
CC[C@H](C)[C@@H]1NC(=O)[C@H](CC)N(C)C(=O)C[C@@H](C(=O)N2CCOCC2)N(C)C(=O)[C@H](C2CCCC2)N(C)C(=O)C2(CCC2)NC(=O)[C@@H]2CCCN2C(=O)[C@H](CCc2cc(F)c(C(F)(F)F)c(F)c2)NC(=O)CN(C)C(=O)[C@H](Cc2ccc(C(F)(F)F)cc2)N2C[C@H](C)[C@H](C)C[C@@H](C2=O)N(C)C(=O)[C@@H]2CCN2C1=O	9.49
CCO[C@@H]1C[C@H]2C(=O)NC3(CCC3)C(=O)N(C)[C@@H](C(CC)CC)C(=O)N(C)[C@H](C(=O)N(C)C)CC(=O)N(C)[C@@H](CC(C)C)C(=O)N[C@@H]([C@@H](C)CC)C(=O)N(C)CC(=O)N(C)[C@H]3C/C=C\CCN(C3=O)[C@@H](Cc3ccc(C(F)(F)F)cc3)C(=O)N(C)CC(=O)N[C@@H](CCc3ccc(C(F)(F)F)c(OC)c3)C(=O)N2C1	9.66
CC[C@H](C)[C@@H]1NC(=O)[C@H](CC2CC2)N(C)C(=O)C[C@@H](C(=O)N(C)C)N(C)C(=O)[C@H](C2CCCC2)N(C)C(=O)C2(CCC2)NC(=O)[C@H](CC(F)F)N(C)C(=O)[C@H](CCc2cc(F)c(C(F)(F)F)c(F)c2)NC(=O)CN(C)C(=O)[C@H](Cc2ccc(C(F)(F)F)cc2)N2CC/C=C\C[C@@H](C2=O)N(C)C(=O)CN(C)C1=O	9.22

----------
test system: human lung cancer strain NCI-H441;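 also: cell proliferation inhibition after four days measured by CellTiter-Glo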
pIC50: −log10 of the molar value.
Reported pIC50 values for a set of compounds
measured_metric: pIC50

compound_string	experimental_target	measured_metric	assay_value
CCO[C@@H]1C[C@H]2C(=O)NC3(CCCC3)C(=O)N(C)[C@@H](C3CCCC3)C(=O)N(C)[C@H](C(=O)N(C)C)CC(=O)N(C)[C@@H](CC(C)C)C(=O)N[C@@H]([C@@H](C)CC)C(=O)N(C)CC(=O)N(C)[C@H]3C/C=C\CCN(C3=O)[C@@H](CC3CCCCC3)C(=O)N(C)CC(=O)N[C@@H](CCc3cc(F)c(C(F)(F)F)c(F)c3)C(=O)N2C1	human lung cancer strain NCI-H441	pIC50	7.44
CCCCCC[C@H]1C(=O)N[C@@H]([C@@H](C)CC)C(=O)N(C)CC(=O)N(C)[C@H]2C/C=C\CCN(C2=O)[C@@H](Cc2ccc(C(F)(F)F)cc2)C(=O)N(C)CC(=O)N[C@@H](CCc2cc(F)c(C(F)(F)F)c(F)c2)C(=O)N2C[C@H](OCC)C[C@H]2C(=O)NC2(CCC2)C(=O)N(C)[C@@H](C2CCCC2)C(=O)N(C)[C@H](C(=O)N(C)C)CC(=O)N1C	human lung cancer strain NCI-H441	pIC50	7.89
CCO[C@@H]1C[C@H]2C(=O)NC3(CCC3)C(=O)N(C)[C@@H](C3CCCC3)C(=O)N(C)[C@H](C(=O)N3CCOCC3)CC(=O)N(C)[C@@H](Cc3cccc(C#N)c3)C(=O)N[C@@H]([C@@H](C)CC)C(=O)N(C)CC(=O)N(C)[C@H]3CCCCCN(C3=O)[C@@H](Cc3ccc(F)cc3)C(=O)N(C)CC(=O)N[C@@H](CCc3cc(F)c(C(F)(F)F)c(F)c3)C(=O)N2C1	human lung cancer strain NCI-H441	pIC50	7.26
CCC[C@H]1C(=O)N[C@@H](CC(C)C)C(=O)N(CC)CC(=O)N(C)[C@H]2C/C=C\CCN(C2=O)[C@@H](Cc2ccc(C)cc2)C(=O)N(C)CC(=O)N[C@@H](CCc2cc(F)c(C(F)(F)F)c(F)c2)C(=O)N2C[C@H](OCC)C[C@H]2C(=O)NC2(CCC2)C(=O)N(C)[C@@H](C2CCCC2)C(=O)N(C)[C@H](C(=O)N(C)C)CC(=O)N1C	human lung cancer strain NCI-H441	pIC50	6.48
CCC(CC)[C@H]1C(=O)N(C)[C@H](C(=O)N(C)C)CC(=O)N(C)[C@@H](COC)C(=O)N[C@@H]([C@@H](C)CC)C(=O)N(C2CC2)CC(=O)N(C)[C@H]2C/C=C\CCN(C2=O)[C@@H](Cc2ccc(C)cc2)C(=O)N(C)CC(=O)N[C@@H](CCc2cc(F)c(C(F)(F)F)c(F)c2)C(=O)N2C[C@H](OC3CCCC3)C[C@H]2C(=O)NC2(CC(C)(C)C2)C(=O)N1C	human lung cancer strain NCI-H441	pIC50	6.88
CCO[C@@H]1C[C@H]2C(=O)NC3(CCC3)C(=O)N(C)[C@@H](C3CCCC3)C(=O)N(C)[C@H](C(=O)N(C)C)CC(=O)N(C)[C@@H](CC(C)C)C(=O)N[C@@H]([C@@H](C)CC)C(=O)N(C)CC(=O)N(C)[C@H]3C/C=C\CCN(C3=O)[C@@H](Cc3ccc(C(F)(F)F)cc3)C(=O)N(C)CC(=O)N[C@@H](CCc3ccc(C(F)(F)F)c(OC)c3)C(=O)N2C1	human lung cancer strain NCI-H441	pIC50	8.43

----------
target: GDP-bound KRAS wild-type protein (Homo sapiens, UniProt P01116); test: Binding to KRAS by surface plasmon resonance (SPR), Single Cycle Kinetics; conditions: SPR, Single Cycle Kinetics, GDP-bound KRAS wild-type protein; read-out: KRAS KD
pKd: −log10 of the molar value.
Reported pKd values for a set of compounds

compound_string	pKd
CCO[C@@H]1C[C@H]2C(=O)N(C)C3(CC(C)(C)C3)C(=O)N(C)[C@@H](C3CCCC3)C(=O)N(C)[C@H](C(=O)N(C)C)CC(=O)N(C)[C@H]3CCC/C=C/c4ccc(cc4)C[C@@H](C(=O)N(C)CC(=O)N[C@@H](CCc4ccc(Cl)c(Cl)c4)C(=O)N2C1)N1CC/C=C\C[C@@H](C1=O)N(C)C(=O)CN(C)C(=O)[C@H]([C@@H](C)CC)NC3=O	10.26
CCC[C@H]1C(=O)N[C@@H]([C@@H](C)CC)C(=O)N(C)CC(=O)N(C)[C@H]2C/C=C\CCN(C2=O)[C@@H](Cc2ccc(C(F)(F)F)cc2)C(=O)N(C)CC(=O)N[C@@H](CCc2ccc(C(F)(F)F)c(Cl)c2)C(=O)N2C[C@H](OCC)C[C@H]2C(=O)NC2(CC(C)(C)C2)C(=O)N(C)[C@@H]([C@@H](C)CC)C(=O)N(C)[C@H](C(=O)N(C)C)CC(=O)N1C	9.74

----------
Reported Kd values for a set of molecules
biological target: GDP-bound KRAS wild-type protein (Homo sapiens); assay: Binding to KRAS by surface plasmon resonance (SPR), Single Cycle Kinetics; conditions: SPR, Single Cycle Kinetics, GDP-bound KRAS wild-type protein; read-out: KRAS KD

compound_string	Kd, nM
CCOC[C@H]1C(=O)N[C@@H]([C@@H](C)CC)C(=O)N(C)CC(=O)N(C)[C@H]2C/C=C\CCN(C2=O)[C@@H](Cc2ccc(C)cc2)C(=O)N(C)CC(=O)N[C@@H](CCc2ccc(C(F)(F)F)c(OC)c2)C(=O)N2C[C@H](C)C[C@H]2C(=O)NC2(CC(C)(C)C2)C(=O)N(C)[C@@H](C2CCCC2)C(=O)N(C)[C@H](C(=O)N(C)C)CC(=O)N1C	0.12
CCO[C@@H]1C[C@H]2C(=O)NC3(CCC3)C(=O)N(C)[C@@H](C3CCCC3)C(=O)N(C)[C@H](C(=O)N(C)C)CC(=O)N(C)[C@@H](CC)C(=O)N[C@@H]([C@@H](C)CC)C(=O)N(C)CC(=O)N(C)[C@H]3CCCCN(C3=O)[C@@H](Cc3ccc(C(F)(F)F)cc3)C(=O)N(C)CC(=O)N[C@@H](CCc3cc(Cl)c(Cl)c(Cl)c3)C(=O)N2C1	0.046
CC[C@H](C)[C@@H]1NC(=O)[C@H](CC(C)C)N(C)C(=O)C[C@@H](C(=O)N2CCOCC2)N(C)C(=O)[C@H](C2CCCC2)N(C)C(=O)C2(CCC2)NC(=O)[C@@H]2C[C@@H](OC)CN2C(=O)[C@H](CCc2cc(F)c(C(F)(F)F)c(F)c2)NC(=O)CN(C)C(=O)[C@H](Cc2ccc(C(F)(F)F)cc2)N2CCCC[C@@H](C2=O)N(C)C(=O)CN(C)C1=O	0.076
CCC[C@H]1C(=O)N[C@@H]([C@@H](C)CC)C(=O)N(C)CC(=O)N(C)[C@H]2C/C=C\CCN(C2=O)[C@@H](Cc2ccc(C(F)(F)F)cc2)C(=O)N(C)CC(=O)N[C@@H](CCc2ccc(C(F)(F)F)c(Cl)c2)C(=O)N2C[C@H](OCC)C[C@H]2C(=O)NC2(CC(C)(C)C2)C(=O)N(C)[C@@H](CC(C)C)C(=O)N(C)[C@H](C(=O)N(C)C)CC(=O)N1C	0.3
CCCO[C@H](C)[C@@H]1NC(=O)[C@H](CC(C)C)N(C)C(=O)C[C@@H](C(=O)N(C)C)N(C)C(=O)[C@H](C2CCCC2)N(C)C(=O)C2(CC(C)(C)C2)NC(=O)[C@@H]2C[C@H](C)CN2C(=O)[C@H](CCc2ccc(C(F)(F)F)c(OC)c2)NC(=O)CN(C)C(=O)[C@H](Cc2ccc(C)cc2)N2CC/C=C\C[C@@H](C2=O)N(C)C(=O)CN(C)C1=O	0.093
CCO[C@@H]1C[C@H]2C(=O)NC3(CCC3)C(=O)N(C)[C@@H](C3CCCC3)C(=O)N(C)[C@H](C(=O)N(C)C)CC(=O)N(C)[C@@H](CC)C(=O)N[C@@H]([C@@H](C)CC)C(=O)N(CC)CC(=O)N(C)[C@H]3C/C=C\CCN(C3=O)[C@@H](Cc3ccc(C(F)(F)F)cc3)C(=O)N(C)CC(=O)N[C@@H](CCc3cc(F)c(C(F)(F)F)c(F)c3)C(=O)N2C1	0.25
CC[C@H](C)[C@@H]1NC(=O)[C@H](CC2CC2)N(C)C(=O)C[C@@H](C(=O)N(C)C)N(C)C(=O)[C@H](C2CCCC2)N(C)C(=O)C2(CCC2)N(C)C(=O)[C@@H]2CCCN2C(=O)[C@H](CCc2cc(F)c(C(F)(F)F)c(F)c2)NC(=O)CN(C)C(=O)[C@H](Cc2ccc(C)cc2)N2CC/C=C\C[C@@H](C2=O)N(C)C(=O)[C@@H]2CCCN2C1=O	0.15
C#CC[C@H]1C(=O)N[C@@H]([C@@H](C)CC)C(=O)N(C)CC(=O)N(C)[C@H]2C/C=C\CCN(C2=O)[C@@H](Cc2ccc(C(F)(F)F)cc2)C(=O)N(C)CC(=O)N[C@@H](CCc2cc(F)c(C(F)(F)F)c(F)c2)C(=O)N2C[C@H](F)C[C@H]2C(=O)NC2(CC(C)(C)C2)C(=O)N(C)[C@@H](C2CCCC2)C(=O)N(C)[C@H](C(=O)N(C)CC)CC(=O)N1C	0.06
CCC[C@H]1C(=O)N[C@@H]([C@@H](C)CC)C(=O)N(C)CC(=O)N(C)[C@H]2C/C=C\CCN(C2=O)[C@@H](Cc2ccc(C(F)(F)F)cc2)C(=O)N(C)CC(=O)N[C@@H](CCc2cc(F)c(C(F)(F)F)c(F)c2)C(=O)N(CC)CC(=O)NC2(CC(C)(C)C2)C(=O)N(C)[C@@H](C2CCCC2)C(=O)N(C)[C@H](C(=O)N(C)C)CC(=O)N1C	0.36
CC[C@H](C)[C@@H]1NC(=O)[C@H](C2CC2)N(C)C(=O)C[C@@H](C(=O)N(C)C)N(C)C(=O)[C@H](C2CCCC2)N(C)C(=O)C2(CCC2)N(C)C(=O)[C@@H]2CCCN2C(=O)[C@H](CCc2cc(F)c(C(F)(F)F)c(F)c2)NC(=O)CN(C)C(=O)[C@H](Cc2ccc(C)cc2)N2CC/C=C\C[C@@H](C2=O)N(C)C(=O)CN(C)C1=O	0.083
CCCN(C)C(=O)[C@@H]1CC(=O)N(C)[C@@H](C(C)C)C(=O)N[C@@H]([C@@H](C)CC)C(=O)N(C)CC(=O)N(C)[C@H]2C/C=C\CCN(C2=O)[C@@H](Cc2ccc(C(F)(F)F)cc2)C(=O)N(C)CC(=O)N[C@@H](CCc2cc(F)c(C(F)(F)F)c(F)c2)C(=O)N2C[C@H](OCC)C[C@H]2C(=O)NC2(CCC2)C(=O)N(C)[C@@H](C2CCCC2)C(=O)N1C	0.21
